The following compounds are listed with their measured log10 of IC50 values.
# System: human platelet rich plasma (PRP)
# experiment: ADP induced platelet aggregation assay
# condition_parameters: Homo sapiens, Platelet, 5 min, read-out: PA IC50 (μM) @ 10 μM ADP, human PRP, 10 μM ADP, AUC at 5 minute
Response schema: value (number) is log10 of IC50 in units of µM.

Recorded results for 6 compounds are shown here.
CC1(C)CN(c2ccccc2NC(=O)Nc2ccc(OC(F)(F)F)cc2)c2c(O)ccc(-c3ccc(Cl)cn3)c21 [Example 122] | -0.29
Cn1c(-c2ccc(O)c3c2C(C)(C)CN3c2ccccc2NC(=O)Nc2ccc(OC(F)(F)F)cc2)nc2ccccc21 [Example 88] | 0.62
Cc1noc(-c2ccc(O)c3c2C(C)(C)CN3c2ccccc2NC(=O)Nc2ccc(OC(F)(F)F)cc2)n1 [Example 97] | 0.18
CC1(C)CN(c2ccccc2NC(=O)Nc2ccc(OC(F)(F)F)cc2)c2c(O)ccc(-c3nc4cnccc4o3)c21 [Example 96] | 0.48
CC(C)(C)c1ncc(-c2c(F)cc(O)c3c2C(C)(C)CN3c2ccccc2NC(=O)Nc2ccc(OC(F)(F)F)cc2)cn1 [Example 160] | -1.05
CC1(C)CN(c2ccccc2NC(=O)Nc2ccc(OC(F)(F)F)cc2)c2c(O)ccc(-c3nc4cc(C(F)(F)F)ccc4s3)c21 [Example 87] | -0.57

Shift focus to the following entry.
Exercise: Specify log10 of IC50 for CCC1(CC)CN(c2ccccc2NC(=O)Nc2ccc(C3CCN(CC(C)(C)C)CC3)cc2)c2c(O)ccc(C#N)c21 [Example 45] and stop.
Solution: -0.41

----------
The following compounds are listed with their measured Ki values.
# measurement_target: UniProtKB P47900
# experiment: Binding Assay A - membrane binding assay, [33P] 2MeS-ADP (WGA FlashPlate)
# condition_parameters: values marked * in Table 1; 0.5 nM [33P] 2MeS-ADP, Cheng-Prusoff; read-out: P2Y1 Ki (nM) using binding assay A
Please give a number only; it is taken to be in nM.

Recorded results for 5 compounds are shown here.
CCC1(CC)CN(c2ccccc2NC(=O)Nc2nc3ccc(F)cc3s2)c2c(O)ccc(Cl)c21 | 6.6
CCC1(CC)CN(c2ccccc2NC(=O)Nc2ccc(C3CCCN3CC(C)C)cc2)c2c1ccc(F)c2O (stereo not drawn) | 5.7
CC1(C)CN(c2ccccc2NC(=O)Nc2nc3ccc(Cl)nc3s2)c2c(O)ccc(-c3nc4ccc(F)cc4s3)c21 | 13
CC1(C)CN(c2ccccc2NC(=O)Nc2nc3ccc(Cl)nc3s2)c2c(O)ccc(-c3nc4cc(F)ccc4s3)c21 | 20.7
CC1(C)CN(c2ccccc2NC(=O)Nc2nc3ccc(F)cc3s2)c2c(O)ccc(-c3nc4ccc(F)cc4s3)c21 | 17.6

Exercise: Retrieve Ki on UniProtKB P47900; query CC1(C)CN(c2ccccc2NC(=O)Nc2csc(C(F)(F)F)n2)c2c(O)cc(F)c(-c3ccc(Cl)cc3)c21
Solution: 9.3

Exercise: Retrieve Ki on UniProtKB P47900; query CC1(C)CN(c2ccccc2NC(=O)Nc2ccc(OC(F)(F)F)cc2)c2c(O)ccc(-c3nc4ccc(F)cc4s3)c21
Solution: 6.3

Exercise: Retrieve Ki on UniProtKB P47900; query CC(C)c1nc(-c2ccc(O)c3c2C(C)(C)CN3c2ccccc2NC(=O)Nc2ccc(OC(F)(F)F)cc2)cs1
Solution: 4.7

Exercise: Retrieve Ki on UniProtKB P47900; query CC(C)c1cnc(-c2ccc(O)c3c2C(C)(C)CN3c2ccccc2NC(=O)Nc2ccc(OC(F)(F)F)cc2)nc1
Solution: 4.1

Exercise: Retrieve Ki on UniProtKB P47900; query CC1(C)CN(c2ccccc2NC(=O)Nc2nc3ccc(F)cc3s2)c2c(O)ccc(-c3nc4cc(F)ccc4s3)c21
Solution: 8.7

Exercise: Retrieve Ki on UniProtKB P47900; query CC1(C)CN(c2ccccc2NC(=O)Nc2ccc(OC(F)(F)F)cc2)c2c(O)ccc(-c3ccc(F)cn3)c21
Solution: 4.5

Exercise: Retrieve Ki on UniProtKB P47900; query CCC1(CC)CN(c2ccccc2NC(=O)Nc2nc(C(C)C)ns2)c2c(O)ccc(Cl)c21
Solution: 7

Exercise: Retrieve Ki on UniProtKB P47900; query CC1(C)CN(c2ccccc2NC(=O)Nc2ccc(OC(F)(F)F)cc2)c2c(O)ccc(-c3nccs3)c21
Solution: 3.4

Exercise: Retrieve Ki on UniProtKB P47900; query CC1(C)CN(c2ccccc2NC(=O)Nc2ccc(OC(F)(F)F)cc2)c2c(O)ccc(-c3ccc(C(F)(F)F)cn3)c21
Solution: 4.8

Exercise: Retrieve Ki on UniProtKB P47900; query CC1(C)CN(c2ccccc2NC(=O)Nc2csc(C(F)(F)F)n2)c2c(O)cc(F)c(-c3ccc(C(F)(F)F)cc3)c21
Solution: 8

----------
# Test system: human platelet rich plasma (PRP)
# experiment: ADP induced platelet aggregation assay
# condition_parameters: Homo sapiens, Platelet, 5 min, read-out: PA IC50 (μM) @ 10 μM ADP, human PRP, 10 μM ADP, AUC at 5 minute
readout_kind: IC50 (µM)
Please give a number only; it is taken to be in µM.

CC1(C)CN(c2ccccc2NC(=O)Nc2csc(Cl)n2)c2c(O)cc(F)c(-c3cc(C(F)(F)F)no3)c21 | 0.39
CC1(C)CN(c2ccccc2NC(=O)Nc2ccc(OC(F)(F)F)cc2)c2c(O)cc(F)c(-c3cc(C(F)(F)F)n[nH]3)c21 | 5.69
CC1(C)CN(c2ccccc2NC(=O)Nc2ccc(OC(F)(F)F)cc2)c2c(O)cc(F)c(-c3ncc(Br)cn3)c21 | 1.25

Exercise: Retrieve IC50 on human platelet rich plasma (PRP); query CCC1(CC)CN(c2ccccc2NC(=O)Nc2ccc(C3CCN(CC(C)C)CC3)cc2)c2c(O)ccc(Cl)c21
Solution: 0.86

Exercise: Retrieve IC50 on human platelet rich plasma (PRP); query CC1(C)CN(c2ccccc2NC(=O)Nc2nc3ccc(Cl)cc3s2)c2c(O)cc(F)c(-c3nc4cc(Cl)ccc4s3)c21
Solution: 0.97

Exercise: Retrieve IC50 on human platelet rich plasma (PRP); query CC1(C)CN(c2ccccc2NC(=O)Nc2nc3ccc(Cl)nc3s2)c2c(O)cc(F)c(-c3ccc(Cl)s3)c21
Solution: 0.13

Exercise: Retrieve IC50 on human platelet rich plasma (PRP); query CC1(C)CN(c2cc(F)ccc2NC(=O)Nc2ccc(F)cc2F)c2c(O)ccc(C(F)(F)F)c21
Solution: 0.24

----------
# measurement_target: cloned human P2Y1 receptors (Homo sapiens (Human), UniProt P47900)
# Sequence (P47900 whole entry): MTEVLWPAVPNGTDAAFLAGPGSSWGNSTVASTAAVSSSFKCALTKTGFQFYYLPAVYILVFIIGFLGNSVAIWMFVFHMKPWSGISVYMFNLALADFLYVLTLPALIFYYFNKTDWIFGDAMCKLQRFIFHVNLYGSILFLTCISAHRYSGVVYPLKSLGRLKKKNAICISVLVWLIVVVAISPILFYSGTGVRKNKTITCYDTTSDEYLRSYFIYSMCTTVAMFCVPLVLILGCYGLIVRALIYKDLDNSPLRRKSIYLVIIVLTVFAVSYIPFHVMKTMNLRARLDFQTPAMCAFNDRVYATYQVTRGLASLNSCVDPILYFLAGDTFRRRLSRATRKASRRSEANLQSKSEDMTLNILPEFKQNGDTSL
# experiment: Binding Assay B - Scintillation Proximity Assay (SPA) for P2Y1 binding, [33P] 2MeS-ADP
# condition_parameters: SPA, 0.3 nM [33P] 2MeS-ADP, Cheng-Prusoff; read-out: P2Y1 Ki (nM) using binding assay B
Param label: returns t when Ki < 10 nM, returns f otherwise, including exact equality.

Below, 10 compounds whose answers are already recorded.
CC1(C)CN(c2ccccc2NC(=O)Nc2nc3ccc(F)cc3s2)c2c(O)cc(F)c(-c3nc4ccc(Cl)cc4s3)c21 | f
CC1(C)CN(c2ccccc2NC(=O)Nc2nc3ccc(Cl)nc3s2)c2c(O)cc(F)c(-c3nc4cc(F)ccc4s3)c21 | f
CCC1(CC)CN(c2ccccc2NC(=O)Nc2ccc(C(C)(C)C)cc2)c2c1ccc(F)c2O | f
CCC1(CC)CN(c2ccccc2NC(=O)Nc2ccc(OC(F)(F)F)cc2)c2c(O)ccc(C=O)c21 | t
CC(C)CN1CCCC1c1ccc(NC(=O)Nc2ccccc2N2CC(C)(C)c3cccc(O)c32)cc1 (stereo not shown) | f
CC1(C)CN(c2ccccc2NC(=O)Nc2csc(Cl)n2)c2c(O)cc(F)c(-c3ccc(Cl)cc3)c21 | f
CC(C)n1nc(-c2c(F)cc(O)c3c2C(C)(C)CN3c2ccccc2NC(=O)Nc2csc(C(F)(F)F)n2)cc1C(F)(F)F | f
CC(C)(C)CN1CCC(c2ccc(NC(=O)Nc3ccccc3N3CC(C)(C)c4c(C(F)(F)F)ccc(O)c43)cc2)CC1 | t
CC1(C)CN(c2ccccc2NC(=O)Nc2ccc(OC(F)(F)F)cc2)c2c(O)c(F)cc(-c3ccc(C(F)(F)F)cn3)c21 | f
Cc1nnc(-c2ccc(O)c3c2C(C)(C)CN3c2ccccc2NC(=O)Nc2ccc(OC(F)(F)F)cc2)o1 | f

Exercise: Given the entry CC1(C)CN(c2ccccc2NC(=O)Nc2ccc(OC(F)(F)F)cc2)c2c(O)c(F)cc(Cl)c21 , would its reported Ki be below 10 nM?
Solution: f

Exercise: Given the entry CC1(C)CN(c2ccccc2NC(=O)Nc2csc(Cl)n2)c2c(O)cc(F)c(-c3ccc(F)cc3)c21 , would its reported Ki be below 10 nM?
Solution: t

Exercise: Given the entry CC(C)CCn1cc(-c2c(F)cc(O)c3c2C(C)(C)CN3c2ccccc2NC(=O)Nc2ccc(OC(F)(F)F)cc2)cn1 , would its reported Ki be below 10 nM?
Solution: f

Exercise: Given the entry CCOC(=O)C1(C)CN(c2ccccc2NC(=O)Nc2nc3ccc(Cl)nc3s2)c2c(O)ccc(Cl)c21 (stereo not shown) , would its reported Ki be below 10 nM?
Solution: f

Exercise: Given the entry CC1(C)CN(c2ccccc2NC(=O)Nc2ccc(OC(F)(F)F)cc2)c2c(O)cc(F)c(-c3ccc(F)nc3)c21 , would its reported Ki be below 10 nM?
Solution: t

Exercise: Given the entry CC(C)CN1CCC(c2ccc(NC(=O)Nc3ccccc3N3CC(C)(C)c4c(-c5ccc(Cl)cc5)c(F)cc(O)c43)cc2)CC1 , would its reported Ki be below 10 nM?
Solution: f

Exercise: Given the entry CC1(C)CN(c2ccccc2NC(=O)Nc2csc(C(F)(F)F)n2)c2c(O)cc(F)c(-c3ccc(F)cc3)c21 , would its reported Ki be below 10 nM?
Solution: f

Exercise: Given the entry CC1(C)CN(c2ccccc2NC(=O)Nc2nc3ccc(F)nc3s2)c2c(O)cc(F)c(-c3ccc(F)cc3)c21 , would its reported Ki be below 10 nM?
Solution: t

Exercise: Given the entry CC(C)(C)CN1CCC(NC(=O)Nc2ccccc2N2CC(C)(C)c3c(-c4ccc(C(F)(F)F)cc4)c(F)cc(O)c32)CC1 , would its reported Ki be below 10 nM?
Solution: f

Exercise: Given the entry CC1(C)CN(c2ccccc2NC(=O)Nc2ccc(OC(F)(F)F)cc2)c2c(O)ccc(-c3ccc(Cl)cc3)c21 , would its reported Ki be below 10 nM?
Solution: t

Exercise: Given the entry CNc1ncnc2oc(-c3ccc(O)c4c3C(C)(C)CN4c3ccccc3NC(=O)Nc3ccc(OC(F)(F)F)cc3)nc12 , would its reported Ki be below 10 nM?
Solution: f

Exercise: Given the entry CC1(C)CN(c2ccccc2NC(=O)Nc2ccc(OC(F)(F)F)cc2)c2c(O)ccc(C(F)(F)F)c21 , would its reported Ki be below 10 nM?
Solution: t

Exercise: Given the entry CC1(C)CN(c2ccccc2NC(=O)Nc2nc3ccc(F)cc3s2)c2c(O)cc(F)c(-c3ccc(C(F)(F)F)nc3)c21 , would its reported Ki be below 10 nM?
Solution: t

Exercise: Given the entry CC1(C)CN(c2ccccc2NC(=O)Nc2csc(Cl)n2)c2c(O)ccc(C(F)(F)F)c21 , would its reported Ki be below 10 nM?
Solution: t
